Assay: Selectivity ratio, ratio of inhibition of wild type TEL fused c-KIT (unknown origin) transfected in mouse BAF3 cells assessed as growth inhibition to inhibition of TEL fused c-KIT T670I mutant (unknown origin) transfected in mouse BAF3 cells assessed as growth inhibition
Set-up: species or system Homo sapiens
As shown below, each of these compounds has a reported RatioGI50 value.
Response field accepts a number only; no unit should be typed.

Previously resolved entries follow.
CNC(=O)c1ccc(-c2n[nH]c3cc(NC(=O)CC(=O)Nc4ccc(Cl)c(C(F)(F)F)c4)ccc23)cc1; 6
O=C(CC(=O)Nc1ccc2c(/C=C/c3ccccn3)n[nH]c2c1)Nc1ccccc1; 19
O=C(CC(=O)Nc1ccc2c(/C=C/c3ccccn3)n[nH]c2c1)Nc1ccc(Cl)c(C(F)(F)F)c1; 12

Prompt line: Which value of RatioGI50 has been reported for `O=C(CC(=O)Nc1ccc2c(/C=C/c3ccccn3)n[nH]c2c1)Nc1cccc(F)c1` in the records?
Response line: 26

----------
Biological target: Casein kinase I isoform alpha (Homo sapiens, UniProt P48729)
Sequence (P48729 whole entry, the tested form may be a part, canonical isoform): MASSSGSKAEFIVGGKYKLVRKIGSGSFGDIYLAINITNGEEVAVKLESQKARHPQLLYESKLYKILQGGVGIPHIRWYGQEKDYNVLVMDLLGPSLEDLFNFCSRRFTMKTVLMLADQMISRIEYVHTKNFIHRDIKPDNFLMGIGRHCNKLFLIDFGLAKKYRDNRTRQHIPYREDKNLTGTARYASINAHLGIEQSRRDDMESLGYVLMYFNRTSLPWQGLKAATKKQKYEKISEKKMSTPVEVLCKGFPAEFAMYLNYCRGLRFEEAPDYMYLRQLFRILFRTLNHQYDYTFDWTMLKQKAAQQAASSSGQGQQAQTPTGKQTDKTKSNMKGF
Assay: Inhibition of wild-type human partial length CSNK1A1 (M1 to L301 residues) expressed in mammalian expression system after 1 hr by Z-LYTE assay
Observation type: IC50

Prompt line: What value of IC50 has been recorded for this entry: `O=C(CC(=O)Nc1ccc2c(/C=C/c3ccccn3)n[nH]c2c1)Nc1cccc(F)c1`
Response line: > 10 µM

----------
Biological target: Mast/stem cell growth factor receptor Kit (Homo sapiens, UniProt P10721)
Sequence (P10721 whole entry): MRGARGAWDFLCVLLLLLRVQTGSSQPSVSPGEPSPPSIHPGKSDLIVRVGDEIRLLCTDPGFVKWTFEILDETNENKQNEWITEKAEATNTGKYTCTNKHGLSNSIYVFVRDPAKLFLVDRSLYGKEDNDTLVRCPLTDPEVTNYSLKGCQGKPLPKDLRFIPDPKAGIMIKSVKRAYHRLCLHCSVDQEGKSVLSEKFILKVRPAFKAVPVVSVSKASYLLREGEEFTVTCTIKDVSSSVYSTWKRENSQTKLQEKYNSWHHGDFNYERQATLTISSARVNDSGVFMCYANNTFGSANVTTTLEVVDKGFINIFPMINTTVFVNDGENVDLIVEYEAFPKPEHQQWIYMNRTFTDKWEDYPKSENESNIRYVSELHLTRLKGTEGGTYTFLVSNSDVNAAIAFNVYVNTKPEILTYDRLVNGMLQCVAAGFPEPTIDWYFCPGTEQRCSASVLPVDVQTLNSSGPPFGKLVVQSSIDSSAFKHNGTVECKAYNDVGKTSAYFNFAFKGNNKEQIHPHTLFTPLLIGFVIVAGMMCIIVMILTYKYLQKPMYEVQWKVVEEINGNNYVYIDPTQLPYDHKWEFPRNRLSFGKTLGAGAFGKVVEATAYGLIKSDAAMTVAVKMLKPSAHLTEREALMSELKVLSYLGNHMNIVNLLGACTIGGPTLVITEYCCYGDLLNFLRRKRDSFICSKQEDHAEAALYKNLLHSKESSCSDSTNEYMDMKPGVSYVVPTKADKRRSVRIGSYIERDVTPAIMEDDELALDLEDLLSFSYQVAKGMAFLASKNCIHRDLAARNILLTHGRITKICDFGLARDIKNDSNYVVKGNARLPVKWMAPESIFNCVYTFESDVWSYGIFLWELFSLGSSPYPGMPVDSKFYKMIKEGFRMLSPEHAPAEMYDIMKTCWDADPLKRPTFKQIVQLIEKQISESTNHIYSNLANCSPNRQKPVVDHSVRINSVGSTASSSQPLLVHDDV
Assay: Inhibition of wild type c-KIT phosphorylation at Y719 residue in human COLO320DM cells after 2 hrs by Western blot analysis
Format: cell-based
Observation type: pEC50
Reminder that pEC50 means the negative base-10 logarithm of the concentration expressed in mol/L.

Prompt line: Can you share its pEC50? I mean this molecule: `O=C(CC(=O)Nc1ccc2c(/C=C/c3ccccn3)n[nH]c2c1)Nc1cccc(F)c1`
Response line: 5.84

----------
Molecular target: Serine/threonine-protein kinase 25 (Homo sapiens, UniProt O00506)
Sequence (O00506 whole entry): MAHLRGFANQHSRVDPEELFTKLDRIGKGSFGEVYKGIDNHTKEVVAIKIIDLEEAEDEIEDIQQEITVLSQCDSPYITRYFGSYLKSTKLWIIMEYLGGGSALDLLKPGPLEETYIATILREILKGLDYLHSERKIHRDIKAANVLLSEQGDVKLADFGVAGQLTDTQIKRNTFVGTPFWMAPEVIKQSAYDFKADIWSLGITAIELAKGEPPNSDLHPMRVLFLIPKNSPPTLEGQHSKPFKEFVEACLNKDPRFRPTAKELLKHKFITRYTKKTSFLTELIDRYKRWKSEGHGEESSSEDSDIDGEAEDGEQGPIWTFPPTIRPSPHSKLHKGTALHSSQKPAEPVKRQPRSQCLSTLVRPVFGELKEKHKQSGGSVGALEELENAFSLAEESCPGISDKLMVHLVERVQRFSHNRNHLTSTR
Observation type: IC50

Prompt line: Data request, read-out IC50, for `O=C(CC(=O)Nc1ccc2c(/C=C/c3ccccn3)n[nH]c2c1)Nc1cccc(F)c1`
Response line: > 10 µM

----------
Target: Mast/stem cell growth factor receptor Kit (Homo sapiens, UniProt P10721)
Experiment: Inhibition of wild type c-KIT phosphorylation at Y703 residue in human COLO320DM cells after 2 hrs by Western blot analysis
Format: cell-based
Observation type: pEC50
In simple prose, pEC50 is minus the logarithm base ten of a concentration in moles per litre.

Prompt line: Please give the measured pEC50 for this compound: `O=C(CC(=O)Nc1ccc2c(/C=C/c3ccccn3)n[nH]c2c1)Nc1cccc(F)c1`
Response line: 5.74

----------
Test: AUC (0 to infinity) in Sprague-Dawley rat at 10 mg/kg, po measured after 5 to 720 mins by LC-tandem mass spectrometry analysis
Type: ADME, organism-based
Parameters: dose 10 mg/kg, route oral, time infinity
Conditions: in vivo
Observation type: AUC(0-inf) (ng·h/mL)
Give the quantity in ng·h/mL, number only.

Prompt line: For the compound `O=C(CC(=O)Nc1ccc2c(/C=C/c3ccccn3)n[nH]c2c1)Nc1cccc(F)c1` , what AUC(0-inf) is on record?
Response line: 809

----------
Assay: Cmax in mouse at 10 mg/kg, po measured after 5 to 720 mins by LC-tandem mass spectrometry analysis
Format: ADME, organism-based
Set-up: dose 10 mg/kg, route oral
Details: in vivo
Observation type: Cmax (ng/mL)
Entry rule: numbers only, all in ng/mL.

Prompt line: What measured Cmax goes with `O=C(CC(=O)Nc1ccc2c(/C=C/c3ccccn3)n[nH]c2c1)Nc1cccc(F)c1` ?
Response line: 1120
